measurement.target: SSTR3 (UniProt P32745)
Sequence (P32745 whole entry): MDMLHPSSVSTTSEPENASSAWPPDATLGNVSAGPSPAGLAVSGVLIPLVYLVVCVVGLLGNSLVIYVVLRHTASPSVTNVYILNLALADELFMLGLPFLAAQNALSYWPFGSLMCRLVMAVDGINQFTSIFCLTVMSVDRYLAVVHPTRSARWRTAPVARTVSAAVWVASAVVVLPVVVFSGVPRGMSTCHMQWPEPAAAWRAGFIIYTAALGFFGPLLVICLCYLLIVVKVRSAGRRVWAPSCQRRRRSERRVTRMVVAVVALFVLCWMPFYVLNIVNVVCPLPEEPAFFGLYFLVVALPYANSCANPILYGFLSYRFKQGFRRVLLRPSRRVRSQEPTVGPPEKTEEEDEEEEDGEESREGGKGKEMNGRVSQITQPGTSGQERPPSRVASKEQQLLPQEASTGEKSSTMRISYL
protocol: cAMP functional agonist assay, CHO cells expressing SSTR3
recorded.conditions: CHO cells stably expressing SSTR3, cAMP
recorded.metric: EC50

QUERY: Name the reported EC50 value associated with the compound Cc1cc(Cl)cc(-c2cnc3nc(C)n(-c4cc(O)cc(F)c4)c(=O)c3c2CN(C)C[C@@H]2CCCN2)c1
RESULT: < 100 nM

QUERY: Name the reported EC50 value associated with the compound Cc1cc(Cl)cc(-c2cnc3ncn(-c4cccc(O)c4)c(=O)c3c2CN(C)C[C@@H]2CCCN2)c1
RESULT: < 100 nM

QUERY: Name the reported EC50 value associated with the compound CN(Cc1c(-c2cc(F)cc(Cl)c2)cnc2ncn(-c3cccc(O)c3)c(=O)c12)C[C@@H]1CCCN1
RESULT: < 100 nM

QUERY: Name the reported EC50 value associated with the compound CC[C@H](N)CN(C)Cc1c(-c2cc(C)cc(C)c2)cnc2ncn(-c3cccc(O)c3)c(=O)c12
RESULT: 100 to 10000 nM

QUERY: Name the reported EC50 value associated with the compound CCN(CCN)Cc1c(-c2cc(C)cc(Cl)c2)cnc2nc(C)n(-c3cc(O)cc(F)c3)c(=O)c12
RESULT: 100 to 10000 nM

QUERY: Name the reported EC50 value associated with the compound CC[C@H](N)CN(C)Cc1c(-c2cc(C)cc(Cl)c2)cnc2ncn(-c3cc(O)cc(C(F)(F)F)c3)c(=O)c12
RESULT: < 100 nM

QUERY: Name the reported EC50 value associated with the compound Cc1cc(Cl)cc(-c2cnc3ncn(-c4cc(O)cc(OC(F)(F)F)c4)c(=O)c3c2CN(C)C[C@@H]2CCCN2)c1
RESULT: 100 to 10000 nM
